Target: cGMP-specific 3',5'-cyclic phosphodiesterase (Homo sapiens, UniProt O76074)
Assay: Percentage inhibition against human phosphodiesterase type 5 isolated from corpus cavernosum at 100 nM.
Assign class by inhibition: not lower than 2% means Yes; lower than 2% means No.

- COMPOUND_STRING: "CC(C)Cn1c(=O)n(C)c(=O)c2c1nc(NC1CCCC1)n2Cc1ccccc1"
  GROUP: "Yes"
- COMPOUND_STRING: "Cn1c(=O)c2c(nc(N[C@@H](CO)c3ccccc3)n2Cc2ccccc2)n(C)c1=O"
  GROUP: "No"
- COMPOUND_STRING: "Cn1c(=O)c2c(nc(N[C@H](CO)Cc3ccccc3)n2Cc2ccccc2)n(C)c1=O"
  GROUP: "No"
- COMPOUND_STRING: "CCn1c(=O)c2c(nc(NC3CCCC3)n2Cc2ccccc2)n(CC)c1=O"
  GROUP: "Yes"
- COMPOUND_STRING: "Cn1c(=O)c2c(nc(NC3CCCC3)n2Cc2ccccc2)n(C)c1=O"
  GROUP: "Yes"

###

Assay: Relative inhibition of PDEs 1-4 and PDE5

- COMPOUND_STRING: "CCn1c(=O)c2c(nc(NC3CCCCC3)n2Cc2ccc(OC)c(Cl)c2)n(CC)c1=O"
  Ratio: "> 9500"
- COMPOUND_STRING: "CCn1c(=O)c2c(nc(NC3CCCCC3)n2Cc2ccc(OC)c(F)c2)n(CC)c1=O"
  Ratio: "> 28000"
- COMPOUND_STRING: "CCn1c(=O)c2c(nc(NC3CCCCC3)n2Cc2ccc(OC)c(Br)c2)n(CC)c1=O"
  Ratio: "> 10000"
- COMPOUND_STRING: "CCn1c(=O)c2c(nc(NC3CCCC3)n2Cc2ccc(O)c(F)c2)n(CC)c1=O"
  Ratio: "> 4400"
- COMPOUND_STRING: "CCn1c(=O)c2c(nc(NC3CCCCC3)n2Cc2ccc(O)cc2)n(CC)c1=O"
  Ratio: "> 3000"
- COMPOUND_STRING: "CCn1c(=O)c2c(nc(NC3CCCCC3)n2Cc2ccc(O)c(F)c2)n(CC)c1=O"
  Ratio: "> 12000"

###

The compounds listed here are annotated with their Ratio.
Molecular target: Phosphodiesterases; PDE5 & PDE6 (Homo sapiens) (UniProt O76074+Q13956+P18545+P35913+O43924+P16499+P51160)
Test: Selectivity for PDE6 compared to PDE5.
Type: protein assay
OBSERVED_PROPERTY: Ratio

- COMPOUND_STRING: "CCn1c(=O)c2c(nc(NC3CCCCC3)n2Cc2ccc(OC)c(C)c2)n(CC)c1=O"
  OBSERVED_PROPERTY: "Ratio"
  RECORDED_VALUE: 58
- COMPOUND_STRING: "CCn1c(=O)c2c(nc(NC3CCCCC3)n2Cc2ccc(O)c(C)c2)n(CC)c1=O"
  OBSERVED_PROPERTY: "Ratio"
  RECORDED_VALUE: 133
- COMPOUND_STRING: "CCn1c(=O)c2c(nc(NC3CCCC3)n2Cc2ccccc2)n(CC)c1=O"
  OBSERVED_PROPERTY: "Ratio"
  RECORDED_VALUE: 21
- COMPOUND_STRING: "CCn1c(=O)c2c(nc(NC3CCCCC3)n2Cc2ccc(O)c(Cl)c2)n(CC)c1=O"
  OBSERVED_PROPERTY: "Ratio"
  RECORDED_VALUE: 250
- COMPOUND_STRING: "CCn1c(=O)c2c(nc(NC3CCCCC3)n2Cc2ccc(OC)c(F)c2)n(CC)c1=O"
  OBSERVED_PROPERTY: "Ratio"
  RECORDED_VALUE: 350

Reference source: ChEMBL document CHEMBL1134944
